Assay: inhibitors of fungal efflux pumps CDR1, CDR2, MDR1, pilot screen, validation compound set, multiplex, phenotypic (AID 588506);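 further: Nile Red retained in cells so higher fluorescence means more efflux inhibition; 0 = negative control wells and 1 = enniatin B 25 µM full block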
Details: S. cerevisiae pump-expressing triplex, Nile Red efflux flow cytometry; at 10 µM; the pumps come from Candida albicans
Activity calls are given as the source filed them.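 How the source made its calls: active means efflux inhibition above 0.42, the validation set average plus 4 SD; inconclusive means no clear call, values can overlap the other calls; inactive means the rest.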
Write down the outcome that applies. Available outcomes: 1 (yes) = active, 0 (no) = inactive

Write down the call the test reported for this compound. Item: CC(=O)O[C@]1(C(C)=O)CC[C@H]2[C@@H]3C=C(Cl)C4=CC(=O)CC[C@]4(C)[C@H]3CC[C@@]21C
0 (no)

Another compound to check: CCCCNc1cc(C(=O)O)cc(S(N)(=O)=O)c1Oc1ccccc1
0 (no)

Continue with C=CCc1ccc(OCC(O)COc2ccc(CC=C)cc2OC)c(OC)c1
0 (no)

Same again, this time with CC1(C)O[C@@H]2C[C@H]3[C@@H]4CCC5=CC(=O)C=C[C@]5(C)[C@@]4(F)[C@@H](O)C[C@]3(C)[C@]2(C(=O)CO)O1
0 (no)

Query c1ccc2c(CC3=NCCN3)cccc2c1 next
0 (no)

One more compound: CCN(Cc1ccncc1)Cc1nc(Cc2ccccc2Cl)no1
0 (no)

// next record O=C1N=c2ccccc2=C1c1[nH]c(=S)[nH]c1O
0 (no)

Now consider O=C(NCc1ccccc1Cl)NC(=O)c1ccccc1 .
0 (no)

Lookup COc1ccc(S(=O)(=O)N2CCN(C(=O)COc3ccc4c(C)cc(=O)oc4c3)CC2)cc1
0 (no)

Note, next up: COCc1cc(=O)[nH]c(Nc2nc3ccccc3o2)n1
0 (no)

What about COc1c2occc2c(OC)c2c(=O)cc(C)oc12 ?
0 (no)

Lookup O=C(CCCCC(=O)NC1CCCC1)NC1CCCC1
0 (no)

Further, for C#CCN1C(=O)C(O)(CC(=O)c2ccc(OC)c(OC)c2)c2ccccc21 (configuration not stated) ?
0 (no)

Try CN1CCN(CCCN2c3ccccc3Sc3ccc(C(F)(F)F)cc32)CC1 next.
0 (no)

Follow-up item: CO/N=C(\C(=O)N[C@@H]1C(=O)N2C(C(=O)O)=C(COC(C)=O)CS[C@H]12)c1csc(N)n1 (stereo in doubt)
0 (no)

What do we get for Cc1ccccc1NC(=O)C1c2ccccc2Oc2ccccc21 ?
0 (no)

How about CC1(C)CC(=O)C(C2(O)C(=O)Nc3ccccc32)CO1 (configuration not stated) ?
0 (no)

Consider next the compound CCc1cc2c(=O)c(-c3ccc(F)cc3)c(C)oc2cc1OCC(=O)O in the same way.
1 (yes)

Further, for Oc1c(Cl)cc(Cl)c(Cl)c1Cc1c(O)c(Cl)cc(Cl)c1Cl ?
0 (no)

Same again, this time with O=C(NCCc1nc2ccccc2[nH]1)c1cccc(Br)c1
0 (no)

Same for COc1ccc(S(=O)(=O)NC(Cc2cnc[nH]2)C(=O)O)cc1 (configuration not stated)
0 (no)

Consider next the compound Cc1c(OC(=O)CNC(=O)OC(C)(C)C)ccc2c3c(c(=O)oc12)CCC3 in the same way.
0 (no)

---

Assay: modulators of CIT2-GFP expression in yeast, confirmation, S. cerevisiae, GFP fusion, cherry picks, mother/daughter gates (AID 2274)
Settings: S. cerevisiae CIT2-GFP strain, flow cytometry, 3 h; measured here: mother cell gate; at 10 µM; stronger effect = higher value
property-name: GFP response, % of DMSO (%)
Write down the numeric answer in % and omit the unit.

Look up GFP response, % of DMSO for this compound: CCC(=O)Nc1cccc(C(=O)/C=C/c2cc(Br)ccc2OC)c1
91.2

Next record, please: CCC(=O)Nc1cccc(C(=O)/C=C/c2ccccc2)c1
95.6

Next compound: CCN(C(=O)c1ccccc1Cl)c1ccccc1
100

What about CCSC1=NCCN1S(=O)(=O)c1ccc(F)cc1 ?
92.8

Another compound to check: Cc1cc(C)nc(S/C=C/C(=O)c2ccccc2F)n1
92.3

Now this one: COc1ccc(/C=N/Nc2nc(-c3cccnc3)nc3ccccc23)c(OC)c1
107

---

Assay: RPL19A-GFP modulators, yeast TOR pathway, confirmation, cell-based, S. cerevisiae, flow cytometry, cherry picks, mother/daughter gates (AID 2270)
Conditions: S. cerevisiae RPL19A-GFP strain, 3 h, measured here: mother cell gate, at 10 µM, stronger effect = lower value, 100 = same GFP as DMSO wells
property-name: GFP response vs DMSO (%)
State the answer as a number, implicitly in %.

Given the entry Cc1c(C(=O)NCCSCc2cccc(C(F)(F)F)c2)cnn1-c1ccc(F)cc1 , report its measured GFP response vs DMSO.
103

Item: CC(=O)N(C1=C(Cl)C(=O)c2ccccc2C1=O)C1CCCCC1
23.1

Follow-up item: NC(=O)CSCc1c(Cl)cccc1Cl
101

What about this compound? COc1ccc(N2CCN(c3nc4c(C)cccn4c(=O)c3/C=C(\C#N)C(N)=O)CC2)cc1
97.5

Do the same for CC1(C)CCN2CCC(C)(C)c3c(O)ccc1c32 please
107

Oc1ccc(N=Nc2ccccc2)o1 , same question.
106

---

Test: promoters of myeloid differentiation in arrested cells, primary screen, cell-based, GFP/MAC1 double positive, flow cytometry, validation set (AID 588685);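 further: compound exposure lasts four days before antibody staining and flow analysis; 0% = DMSO wells and 100% = 5 µM fulvestrant positive control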
Conditions: ER-HoxA9 marrow cells, normalized: vehicle 0, fulvestrant 100
Calls of active or inactive are those of the source.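 The calls were made as follows: active = differentiation response of at least 50%, scaled between solvent and reference control, from cells with both markers; inactive = the rest.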
Answer with one of the outcomes given here: t for active, f for inactive

What call does the record list for COc1ccc(CCCC(=O)O)c(C)c1 ?
f

// same read-out, input: CNCCCC12CCC(c3ccccc31)c1ccccc12
f

Ok, now C=CCc1ccc(OCC(O)COc2ccc(CC=C)cc2OC)c(OC)c1
t

// same read-out, input: COc1ccc(CCNC(=O)CC(c2ccccc2)c2cccc(C)c2O)cc1OC (stereo unspecified)
f

Thanks! And CCn1cc(C(=O)O)c(=O)c2cc(F)c(N3CCNCC3)cc21 ?
f

Can you handle COc1ccc(CCn2c(C)cc3c(c2=O)C(c2ccncc2)C(C#N)=C(N)O3)cc1OC (stereo unspecified) next?
f

And then COc1ccc2[nH]c3c(c2c1)CCn1c-3nc2ccccc2c1=O , what is it?
f

Try the compound COC(=O)c1cc(C(=O)NCCC(C)C)cc([N+](=O)[O-])c1
f

Next: Cc1ncc([N+](=O)[O-])n1CC(C)O (stereo unspecified)
f

Now consider COc1cccc(N2CC(O)=C(c3nc4ccccc4c(=O)[nH]3)C2=N)c1 .
f

What about this compound? CC(=O)O[C@H]1CSC[C@H]1NC(=O)c1ccccc1
f

---

Test: modulators of CIT2-GFP expression in yeast, confirmation, S. cerevisiae, GFP fusion, cherry picks, mother/daughter gates (AID 2274)
Details: S. cerevisiae CIT2-GFP strain, flow cytometry, 3 h; measured here: daughter cell gate; at 10 µM; stronger effect = higher value
For each of the molecules below, state its GFP response, % of DMSO.
API: value field is a number in %; no unit string.

If you can, please state the reported GFP response, % of DMSO value of COc1cc(/C=C2/N=C(c3ccccc3)OC2=O)c(F)cc1OCc1ccccc1 .
105

Next: CCSC1=NCCN1S(=O)(=O)c1ccc(F)cc1
93.7

Please answer likewise for Cc1cc(=O)n(-c2ccc3ccccc3n2)[nH]1
114

Another: Cc1ccc(S(=O)(=O)N(CC(=O)NCc2ccncc2)Cc2ccccc2F)cc1
101

Same thing, different molecule: CCCc1[nH]nc2c1C(c1cccc(OC)c1)C(C#N)=C(N)O2 (stereo unspecified)
97.4

Entry CCN(CC)CCN(C(=O)c1ccc2c(c1)CCCC2)c1nc2cc(OC)c(OC)cc2s1 please
102

And then O=C1[C@@H]2C3C=CC(O3)[C@@H]2C(=O)N1c1ccccc1 , what is it?
101

Moving on to the next molecule: C#CCSc1nncn1C(=O)/C=C/c1ccccc1
111

Also check CC(=O)Oc1ccc(N2C(=O)C3C4C=CC(O4)C3C2=O)cc1 (stereo unspecified)
99.1

Another molecule to check: O=C1c2cccc3cccc(c23)C(=O)N1c1nncs1
94.8

# iterate: COC(=O)c1ccc(/C=C/C(=O)c2ccc(OC)cc2)cc1
100

---

For each of the compounds below, state its GFP response relative to DMSO.
Test: LAP4-GFP expression modulators in yeast, confirmation, cell-based, cherry picks, flow cytometry, mother/daughter gates (AID 2271);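 further: ratio of sample to DMSO plate mean so 100% equals DMSO level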
Conditions: S. cerevisiae LAP4-GFP strain, 3 h, measured here: daughter cell gate response, at 10 µM, stronger effect = higher value, 100 means same as DMSO control
Record the value in %, omitting the unit from your answer.

Recorded GFP response relative to DMSO of Cc1ccc(/C=N\NC(=O)c2cc(OCC(F)(F)F)ccc2OCC(F)(F)F)cc1 , please.
91.2

One more compound: CCCOc1ccc(N2C(=O)CC(SCCN)C2=O)cc1 (stereo unspecified)
102

COc1ccc(NC(=O)/C(Cl)=C(/Cl)S(=O)Cc2ccccc2)cn1 (stereo unspecified) ?
227

Check Oc1ccc(-c2csc(-c3ccccc3)n2)cc1O too.
120

Also CC1CN(c2nc3ccccn3c(=O)c2/C=C(\C#N)C(N)=O)CC(C)O1 (stereo unspecified) , if possible.
99

Then this compound: Cc1ccc(C)c(-c2nnc(NC(=O)c3ccc([N+](=O)[O-])o3)o2)c1
114

Same read-out for N#C/C(=C\c1c(N(Cc2ccccc2)Cc2ccccc2)nc2ccccn2c1=O)C(N)=O ?
97.2

Again, but for COc1ccc([N+](=O)[O-])c(S(=O)(=O)c2ccccc2)n1
170

How about COc1ccc(Sc2ncnc3onc(C)c23)cc1 ?
113

Ok, now COc1ccc(S(=O)(=O)N2CCC(O)(c3ccc(Cl)cc3)CC2)cc1
97.6

Subsequent entry: CNC(=O)/C(C#N)=C/c1c(N(Cc2ccccc2)Cc2ccccc2)nc2ccccn2c1=O
99

Numbers sourced from PubChem BioAssay.
